Measured target: T1R1/T1R3 receptor (Felis catus)
Assay remarks: cell-based
Type: cell-based
Conditions: in the presence of 20 mM alanine; relative to IMP
Readout: Max resp % of IMP +Alanine (20 mM) (%)
Form entry: value (%) — number only.

# count of solved cases: 5
>  <Compound>
CC1CCCC(NC(=O)c2ccc3c(c2)OCO3)C1C (stereo not drawn)

>  <Unit info>
%

>  <Max resp % of IMP +Alanine (20 mM)>
18.1

$$$$
>  <Compound>
CCC(CC)NC(=O)c1ccc(OC)c(OC)c1 [3,4-dimethoxy-N-(pentan-3-yl)benzamide]

>  <Unit info>
%

>  <Max resp % of IMP +Alanine (20 mM)>
43.9

$$$$
>  <Compound>
CCCC(C)NC(=O)c1ccc(OC)c(C)c1 (stereo not drawn)

>  <Unit info>
%

>  <Max resp % of IMP +Alanine (20 mM)>
126.0

$$$$
>  <Compound>
CCC(CC)NC(=O)c1ccc(C)c(C)c1 [3,4-dimethyl-N-(pentan-3-yl)benzamide]

>  <Unit info>
%

>  <Max resp % of IMP +Alanine (20 mM)>
97.8

$$$$
>  <Compound>
CCC(CC)NC(=O)c1ccc(Br)o1

>  <Unit info>
%

>  <Max resp % of IMP +Alanine (20 mM)>
126.8

$$$$

Could you now consider this next compound?
Q: Report Max resp % of IMP +Alanine (20 mM) for COc1ccc(/C=C/C(=O)NC2CCCCC2C)cc1 (stereo not drawn) please.
A: 63.2

----------
Measured target: T1R1/T1R3 receptor (Felis catus, UniProt E3UMS2)
Assay remarks: cell-based
Type: cell-based
Conditions: in the presence of 20 mM alanine
Readout: Max resp ΔF/F +Alanine (20 mM)
Please state the value as a number alone, without comment.

>  <Compound>
CCC(CC)NC(=O)c1ccc(C)c(C)c1 [3,4-dimethyl-N-(pentan-3-yl)benzamide]

>  <Measured target>
T1R1/T1R3 receptor (Felis catus, UniProt E3UMS2)

>  <Max resp ΔF/F +Alanine (20 mM)>
1.2150

$$$$
>  <Compound>
CCC(CC)NC(=O)c1ccc(Br)o1

>  <Measured target>
T1R1/T1R3 receptor (Felis catus, UniProt E3UMS2)

>  <Max resp ΔF/F +Alanine (20 mM)>
1.575

$$$$
>  <Compound>
COC(=O)C(NC(=O)/C=C/c1cccs1)C(C)C (centres unmarked)

>  <Measured target>
T1R1/T1R3 receptor (Felis catus, UniProt E3UMS2)

>  <Max resp ΔF/F +Alanine (20 mM)>
0.1175

$$$$

Q: Report Max resp ΔF/F +Alanine (20 mM) for CCC(CC)NC(=O)c1ccc(OC)c(OC)c1 [3,4-dimethoxy-N-(pentan-3-yl)benzamide] please.
A: 0.545

Q: Report Max resp ΔF/F +Alanine (20 mM) for CCOC(=O)C(NC(=O)c1ccc2c(c1)OCO2)C(C)C (centres unmarked) please.
A: 0.3175

----------
Measured target: T1R1/T1R3 receptor (Felis catus)
Assay remarks: cell-based
Assay type: cell-based
Conditions: in the presence of 0.2 mM IMP
From the text: HEK293 cells that stably express T1R3 and inducibly express T1R1 were exposed to transmembrane compounds alone or in combination with one or more amino acids and/or one or more nucleotides to activate the umami receptor. Activation of the T1R1/T1R3 receptor was detected by a change in intracellular calcium levels using a calcium sensitive fluorescent dye. Cells that express T1R3 but not T1R1 were used as a control. A FLIPR® Tetra or a FlexStation® 3 was used for data capture. […]
Readout: Max resp ΔF/F +IMP (0.2 mM)
Please state the value as a number alone, without comment.

>  <Compound>
CCOC(=O)C(NC(=O)c1ccc2c(c1)OCO2)C(C)C (stereo not drawn)

>  <Observed>
0.65

$$$$
>  <Compound>
COc1ccc(C(=O)NC(C)c2ccccc2)cc1C (stereo not drawn)

>  <Observed>
1.1775

$$$$
>  <Compound>
CCCC(C)NC(=O)c1ccc(OC)c(C)c1 (stereo not drawn)

>  <Observed>
1.5875

$$$$
>  <Compound>
COc1ccc(/C=C/C(=O)NC2CCCCC2C)cc1 (stereo not drawn)

>  <Observed>
1.7725

$$$$

Q: Report Max resp ΔF/F +IMP (0.2 mM) for COC(=O)C(NC(=O)/C=C/c1cccs1)C(C)C (stereo not drawn) please.
A: 0.7375

Q: Report Max resp ΔF/F +IMP (0.2 mM) for `O=C(CN1C(=O)C(=O)N(Cc2ccccc2)C1=O)c1ccccc1` please.
A: 1.140

Q: Report Max resp ΔF/F +IMP (0.2 mM) for `CCC(CC)NC(=O)/C=C/c1ccc(OC)cc1` please.
A: 1.443

Q: Report Max resp ΔF/F +IMP (0.2 mM) for CCC(CC)NC(=O)c1ccc(C)c(C)c1 [3,4-dimethyl-N-(pentan-3-yl)benzamide] please.
A: 1.5475

Q: Report Max resp ΔF/F +IMP (0.2 mM) for CCC(CC)NC(=O)c1ccc(OC)c(OC)c1 [3,4-dimethoxy-N-(pentan-3-yl)benzamide] please.
A: 0.9975

----------
Measured target: T1R1/T1R3 receptor (Felis catus)
Assay remarks: Example 8: PAM screening of transmembrane compounds with GMP and Ala on T1R1/T1R3 in HEK293 cells
Assay type: cell-based, cat
Conditions: compound at 0.01, 0.1, 1 mM in combination with GMP+Ala mixtures (T1-T4); PAM if response to the combination is greater than the sum of the responses to compound alone and to GMP+Ala alone
Readout: T1R1/T1R3 PAM

>  <Molecule>
Cl.N[C@@H](Cc1ccccc1)C(=O)OCc1ccccc1 [Formula 20]

>  <T1R1/T1R3 PAM>
Yes

$$$$
>  <Molecule>
O=C(CN1C(=O)C(=O)N(Cc2ccccc2)C1=O)c1ccc2c(c1)CCC2 [Formula 2]

>  <T1R1/T1R3 PAM>
No

$$$$
>  <Molecule>
O=C1C(=O)N(Cc2ccccc2)C(=S)N1Cc1ccccc1 [Formula 13]

>  <T1R1/T1R3 PAM>
No

$$$$
>  <Molecule>
CCCC(CCC)NC(=O)c1ccc2c(c1)OCO2 [Formula 14]

>  <T1R1/T1R3 PAM>
Yes

$$$$
>  <Molecule>
O=C(CN1C(=O)C(=O)N(Cc2ccccc2)C1=O)c1ccccc1 [Formula 1]

>  <T1R1/T1R3 PAM>
No

$$$$

Q: GET /values?readout=T1R1/T1R3 PAM&system=T1R1/T1R3 receptor (Felis catus)&item= O=C(CN1C(=O)C(=O)N(CCc2cccs2)C1=O)c1ccccc1 [Formula 6]
A: No

Q: GET /values?readout=T1R1/T1R3 PAM&system=T1R1/T1R3 receptor (Felis catus)&item= N#Cc1cccc(NC(=O)CN2C(=O)C(=O)N(Cc3ccccc3)C2=O)c1 [Formula 9]
A: No

Q: GET /values?readout=T1R1/T1R3 PAM&system=T1R1/T1R3 receptor (Felis catus)&item= O=C(CN1C(=O)C(=O)N(Cc2ccccc2)C1=O)c1ccc2c(c1)OCCO2 [Formula 4]
A: No

Q: GET /values?readout=T1R1/T1R3 PAM&system=T1R1/T1R3 receptor (Felis catus)&item= COC(=O)[C@H](CC(C)C)NCc1ccccc1.Cl [Formula 18]
A: Yes

----------
Listed here are molecules together with their documented Thres +IMP (0.2 mM).
Measured target: T1R1/T1R3 receptor (Felis catus, UniProt E3UMS2)
Assay type: cell-based
Conditions: threshold in the presence of 0.2 mM IMP; CNBD = Could not be determined
Form entry: value (mM) — number only.

Q: GET /values?readout=Thres +IMP (0.2 mM)&system=T1R1/T1R3 receptor (Felis catus, UniProt E3UMS2)&item= `N[C@@H](Cc1c[nH]c2ccccc12)C(=O)O`
A: 0.1

Q: GET /values?readout=Thres +IMP (0.2 mM)&system=T1R1/T1R3 receptor (Felis catus, UniProt E3UMS2)&item= `N[C@@H](Cc1ccc(O)cc1)C(=O)O`
A: 3.0

Q: GET /values?readout=Thres +IMP (0.2 mM)&system=T1R1/T1R3 receptor (Felis catus, UniProt E3UMS2)&item= O=C(NCCc1c[nH]c2ccccc12)c1cccnc1 [N-(2-(1H-indol-3-yl)ethyl)nicotinamide, N-(2-(1H-Indol-3-yl)ethyl)nicotinamide]
A: 0.003

----------
Listed here are compounds together with their documented Max resp ΔF/F +Alanine (20 mM).
Measured target: T1R1/T1R3 receptor (Felis catus, UniProt E3UMS2)
Assay remarks: cell-based
Format: cell-based
Conditions: in the presence of 20 mM alanine
Please state the value as a number alone, without comment.

Q: Report Max resp ΔF/F +Alanine (20 mM) for O=C(Nc1ccccc1Br)N[C@@H]1c2ccccc2C[C@@H]1O (stereo in doubt) please.
A: 0.3

Q: Report Max resp ΔF/F +Alanine (20 mM) for `CCC(CC)NC(=O)c1ccc2c(c1)OCCO2` please.
A: 0.3125

Q: Report Max resp ΔF/F +Alanine (20 mM) for COc1ccc(/C=C/C(=O)NC2CCCCC2C)cc1 (stereo not drawn) please.
A: 0.785

Q: Report Max resp ΔF/F +Alanine (20 mM) for CCCC(C)NC(=O)c1ccc(OC)c(C)c1 (stereo not drawn) please.
A: 1.5650

Q: Report Max resp ΔF/F +Alanine (20 mM) for `O=C(CN1C(=O)C(=O)N(Cc2ccccc2)C1=O)c1ccccc1` please.
A: 1.3

Q: Report Max resp ΔF/F +Alanine (20 mM) for `CCC(CC)NC(=O)/C=C/c1ccc(OC)cc1` please.
A: 0.7

Data origin: patent US20190021380A1
